Data origin: patent US20180099931A1

molecular target: F508delCFTR (Homo sapiens, UniProt P13569, DEL508-508); construct: expressed in transfected cells; host or cells: CFBE41o- human lung-derived epithelial cells (CFBE4lo-F508delCFTR-HRP), doxycycline-inducible; test: Cell Surface Expression-Horse Radish Peroxidase (CSE-HRP) Assay; assay type: cell-based; conditions: without co-corrector; maximum at any tested concentration, normalized to on-plate positive control; read-out: Maximum % activity (without co-corrector);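 also: percent of the 2 µM on-plate positive control corrector response above DMSO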
Sequence (P13569 with tags, fused parts or gaps DEL508-508): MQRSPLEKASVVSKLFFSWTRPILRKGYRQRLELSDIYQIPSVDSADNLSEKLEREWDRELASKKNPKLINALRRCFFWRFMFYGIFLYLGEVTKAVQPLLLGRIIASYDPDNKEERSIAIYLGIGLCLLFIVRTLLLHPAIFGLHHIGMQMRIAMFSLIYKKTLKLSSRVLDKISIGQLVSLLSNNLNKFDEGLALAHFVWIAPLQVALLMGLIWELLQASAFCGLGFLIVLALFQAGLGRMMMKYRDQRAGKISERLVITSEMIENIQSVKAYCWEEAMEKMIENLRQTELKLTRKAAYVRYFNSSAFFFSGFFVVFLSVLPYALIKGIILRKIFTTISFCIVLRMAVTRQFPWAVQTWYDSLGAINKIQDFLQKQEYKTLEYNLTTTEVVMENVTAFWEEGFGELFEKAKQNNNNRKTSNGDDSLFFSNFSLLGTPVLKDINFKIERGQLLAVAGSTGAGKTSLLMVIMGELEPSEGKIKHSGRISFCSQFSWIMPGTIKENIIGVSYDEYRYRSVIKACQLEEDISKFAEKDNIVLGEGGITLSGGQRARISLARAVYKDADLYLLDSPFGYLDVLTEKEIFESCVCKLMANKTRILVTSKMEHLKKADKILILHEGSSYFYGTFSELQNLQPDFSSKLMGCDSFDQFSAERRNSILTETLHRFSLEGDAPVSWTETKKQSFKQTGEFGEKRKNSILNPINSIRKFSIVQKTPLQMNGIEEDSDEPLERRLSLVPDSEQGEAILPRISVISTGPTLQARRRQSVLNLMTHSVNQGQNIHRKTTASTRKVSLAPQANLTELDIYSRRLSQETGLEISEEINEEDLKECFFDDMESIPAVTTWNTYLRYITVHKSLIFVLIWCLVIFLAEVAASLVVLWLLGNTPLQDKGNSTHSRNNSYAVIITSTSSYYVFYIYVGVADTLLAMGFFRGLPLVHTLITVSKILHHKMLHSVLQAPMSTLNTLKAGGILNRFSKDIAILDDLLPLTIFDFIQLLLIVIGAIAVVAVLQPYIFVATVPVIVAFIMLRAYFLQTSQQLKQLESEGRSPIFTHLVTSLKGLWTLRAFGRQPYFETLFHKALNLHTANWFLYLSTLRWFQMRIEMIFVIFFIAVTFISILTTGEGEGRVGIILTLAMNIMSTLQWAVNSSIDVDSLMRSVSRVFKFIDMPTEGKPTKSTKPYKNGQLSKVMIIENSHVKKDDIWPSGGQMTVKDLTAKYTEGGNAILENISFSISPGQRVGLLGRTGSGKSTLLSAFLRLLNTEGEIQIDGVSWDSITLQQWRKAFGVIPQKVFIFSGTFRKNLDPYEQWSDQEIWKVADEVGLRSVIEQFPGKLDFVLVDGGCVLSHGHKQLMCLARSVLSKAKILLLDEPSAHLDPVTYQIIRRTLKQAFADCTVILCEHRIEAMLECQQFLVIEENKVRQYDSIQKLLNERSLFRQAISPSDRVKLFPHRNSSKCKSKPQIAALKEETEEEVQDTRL
Recorded Emax by entry

Value of Emax reported for the compound COc1ccc(C(C)(C)C)cc1CN[C@H]1[C@H](C(C)(C)C)[C@@H](C(=O)O)N(C(=O)CC2CCCCO2)[C@H]1c1ccccc1 (some centres unmarked) is 100 to 200%

Value of Emax reported for the compound COc1ccc(C2(C(F)(F)F)CC2)cc1CN[C@H]1[C@H](C(C)(C)C)[C@@H](C(=O)O)N(C(=O)C2Cc3ccccc3O2)[C@H]1c1cccnc1N(C)C (single isomer, unassigned) is < 100%

Value of Emax reported for the compound COc1ncc(C(F)(F)F)cc1CN[C@H]1[C@H](C(C)(C)C)[C@@H](C(=O)O)N(C(=O)[C@@H]2CCCCO2)[C@H]1c1ccccc1C(C)C is > 200%

Value of Emax reported for the compound COc1ccc(C(C)(C)C)cc1CN[C@H]1[C@H](C(C)(C)C)[C@@H](C(=O)O)N(C(=O)OC(C)(C)C)[C@H]1c1cccnc1OC is > 200%

Value of Emax reported for the compound COc1ccc(C(C)(C)C)cc1CN[C@H]1[C@H](C(C)(C)C)[C@@H](C(=O)O)N(C(=O)c2cnn(C(C)(C)C)c2C(C)C)[C@H]1c1ccccc1 is 100 to 200%
